- Tested on: PPARg:RXRa 90nM:30nM, anti-RXR (NR concentration 90 nM, RXRa partner concentration 30 nM)
- MEASUREMENT DESCRIPTION: PBM binding z-score (relative to random genomic background probes); higher = stronger binding; sequences stand for … in GC…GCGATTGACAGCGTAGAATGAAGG
PARAMETER MEASURED: PBM binding z-score
Returns: the value as a bare number; no unit string appended.

For reference, reported PBM binding z-score for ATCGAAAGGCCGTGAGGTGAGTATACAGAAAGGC stands at -0.0286

Continuing:
Quick note, PBM binding z-score for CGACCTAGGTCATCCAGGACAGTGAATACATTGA landed at 2.59

In plain terms, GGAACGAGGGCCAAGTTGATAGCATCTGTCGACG has a documented PBM binding z-score of 0.913

# PBM binding z-score (sequence: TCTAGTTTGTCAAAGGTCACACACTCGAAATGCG ) is 8.39

Entry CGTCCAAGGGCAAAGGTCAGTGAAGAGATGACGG — recorded PBM binding z-score = 7.34

Summary for this sequence, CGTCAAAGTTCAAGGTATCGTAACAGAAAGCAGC : PBM binding z-score is 3.38

Record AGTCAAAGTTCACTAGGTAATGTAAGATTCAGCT , field PBM binding z-score: 5.25

Query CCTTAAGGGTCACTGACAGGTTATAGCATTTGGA yields PBM binding z-score of 4.77

// field: PBM binding z-score; key: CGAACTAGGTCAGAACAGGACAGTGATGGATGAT ; value = 3.37

Form field PBM binding z-score, entry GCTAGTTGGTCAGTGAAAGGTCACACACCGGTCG : 5.67

Per the record, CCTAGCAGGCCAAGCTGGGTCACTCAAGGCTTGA has PBM binding z-score of -0.107

Entry under test: GCTAGTTGGTCAGTAAGAGGTCACACACCGGTCG . Its PBM binding z-score was 2.34

The value of PBM binding z-score measured for the sequence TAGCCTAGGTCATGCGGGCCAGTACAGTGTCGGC turned out to be 1.61

Noted for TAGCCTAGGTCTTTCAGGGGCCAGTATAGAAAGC : its PBM binding z-score reads -0.453

Reported PBM binding z-score of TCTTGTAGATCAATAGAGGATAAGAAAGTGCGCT : 2.25
